tested on: PCSK9 gene splice site; format: cell-based, human
Hi! Just check whether Human Primary Hepatocytes-splice site editing % 1250 ng/mL is below 4%. Below gives YES, equal or above gives NO.

Asked: In the record for GA088: PCSK9 gRNA for ABE8.8 splice site editing, Human/Cyno (nucleic acid, 2'-O-methyl at 1, 2, other sugars and backbone not given here; further chemistry not fully specified, PCSK9 gRNA for ABE8.8 splice site editing, Human/Cyno) guide: CCCAGGCTGCAGCTCCCACTGTTTTAGAGCTAGAAATAGCAAGTTAAAATAAGGCTAGTCCGTTATCAACTTGAAAAAGTGGCACCGAGTCGGTGCTTTT , is Human Primary Hepatocytes-splice site editing % 1250 ng/mL less than 4%?
Given back: YES

Asked: Again, but for GA084: PCSK9 gRNA for ABE8.8 splice site editing, Human/Cyno (nucleic acid, 2'-O-methyl at 1, 2, other sugars and backbone not given here; further chemistry not fully specified, PCSK9 gRNA for ABE8.8 splice site editing, Human/Cyno) guide: CCTCTTCACCTGCTCCTGAGGTTTTAGAGCTAGAAATAGCAAGTTAAAATAAGGCTAGTCCGTTATCAACTTGAAAAAGTGGCACCGAGTCGGTGCTTTT
Given back: NO

Asked: Again, but for GA074: PCSK9 gRNA; protospacer TGCTTACCTGTCTGTGGAAG (SEQ ID NO: 68), splice donor of intron 4 (nucleic acid, listed as RNA; modified_base 1: mod_base = OTHER; note = 2'-O-Methyl-uridine phosphorothioate; modified_base 2: mod_base = OTHER; note = 2'-O-Methyl-guanosine phosphorothioate; modified_ba) guide: TGCTTACCTGTCTGTGGAAGGTTTTAGAGCTAGAAATAGCAAGTTAAAATAAGGCTAGTCCGTTATCAACTTGAAAAAGTGGCACCGAGTCGGTGCTTTT
Given back: NO

Asked: Again, but for GA087: PCSK9 gRNA for ABE8.8 splice site editing, Human/Cyno (nucleic acid, 2'-O-methyl at 1, 2, other sugars and backbone not given here; further chemistry not fully specified, PCSK9 gRNA for ABE8.8 splice site editing, Human/Cyno) guide: UCACCTGCTCCTGAGGGGCCGTTTTAGAGCTAGAAATAGCAAGTTAAAATAAGGCTAGTCCGTTATCAACTTGAAAAAGTGGCACCGAGTCGGTGCTTTT
Given back: YES

Further cases:
Asked: In the record for GA089: PCSK9 gRNA for ABE8.8 splice site editing, Human/Cyno (nucleic acid, 2'-O-methyl at 1, 2, other sugars and backbone not given here; further chemistry not fully specified, PCSK9 gRNA for ABE8.8 splice site editing, Human/Cyno) guide: CCCCAGGCTGCAGCTCCCACGTTTTAGAGCTAGAAATAGCAAGTTAAAATAAGGCTAGTCCGTTATCAACTTGAAAAAGTGGCACCGAGTCGGTGCTTTT , is Human Primary Hepatocytes-splice site editing % 1250 ng/mL less than 4%?
Given back: NO

Asked: Again, but for GA081: PCSK9 gRNA for ABE8.8 splice site editing, Human/Cyno (nucleic acid, listed as RNA; modified_base 1: mod_base = OTHER; note = 2'-O-Methyl-uridine phosphorothioate; modified_base 2: mod_base = OTHER; modified_base, PCSK9 gRNA for ABE8.8 splice site editing, Human/Cyno) guide: TTTCCAGGTCATCACAGTTGGTTTTAGAGCTAGAAATAGCAAGTTAAAATAAGGCTAGTCCGTTATCAACTTGAAAAAGTGGCACCGAGTCGGTGCTTTT
Given back: NO
